- SYSTEM_NAME: T1, c-Met-Fc chimera protein (UniProt P08581 25-932, limits assumed)
- T1 construct: Captured on the SPR chip by an anti-IgG antibody; not shown: Fc part
- ASSAY_SUMMARY: SPR (Biacore), c-Met-Fc captured by anti-IgG on CM5, single-cycle kinetics
- Experimental: As a sensor chip, Sensor Chip CM5 was used and an anti-IgG antibody was immobilized on a measurement lane and a control lane by using Human Antibody Capture Kit. On the measurement lane was immobilized c-Met-Fc, while on the control lane was immobilized Fc protein. As a running buffer, HBS-EP+ buffer containing 0.1% DMSO was used and a dissociation constant of the thioether macrocyclic peptide was calculated at 5 different concentrations by using the single-kinetics method.
Bridges are numbered along the chain shown (N, C = ends). Roman numbers before positions name the chains, in order. Primed or numbered codes have the meaning given here. Where no end group is shown, it is not given here. [ ]: non-standard residue; d: D form. BMH′ = not defined here
MEASURE_NAME: koff (s⁻¹)

• {CH2CO}-YRQFNRRTHEVWNLDCGC(Bis‑MAL‑PEG3) (thioether N-16; not fully specified (residue 1); also: dimer: two copies joined by Bis-MAL-PEG3 at Cys18, Two macrocyclic peptides joined through their C-terminal Cys by Bis-MAL-PEG3; also called D4-3 Bis-MAL-PEG3) [D4-3 dimeric peptide, linker Bis-MAL-PEG3] = 0.0007
• D5-4 dimeric peptide, linker BMH (thioether I:N-I:15, II:N-II:15 via Ac; not fully specified (N-terminus, bridges); also: dimer: two copies joined by BMH through an added C-terminal Cys (handle not in letters), Two macrocyclic peptides joined through their C-terminal Cys by BMH; also called D5-4 BMH; not shown: C-terminal handle of each copy (spacer residue plus Cys)) peptide 1: [dY]WYYAWDQTYKAFPCG peptide 2: [dY]WYYAWDQTYKAFPCG = 0.00055
• {CH2CO}-YRQFNRRTHEVWNLDCGC(BMH′) (thioether N-16; not fully specified (residue 1); also: dimer: two copies joined by BMH at Cys18, Two macrocyclic peptides joined through their C-terminal Cys by BMH; also called D4-3 BMH) [D4-3 dimeric peptide, linker BMH] = 0.00091

Origin of measurements: patent US20160237119A1
